Where do these numbers come from? They come from paper PMC9683716.

# measured.target: Myzus persicae (aphid) Naam
# test.protocol: Naam inhibition assay, aphid Naam
readout.kind: Ki (nM)
Quick note: give the figure in nM, leave out the unit.

# lookup: Ki of NC(=O)c1cnccc1C(F)(F)F [TFNA-AM, 4-trifluoromethylnicotinamide]
80

----------
# measured.target: Nilaparvata lugens (planthopper) Naam
# test.protocol: Naam inhibition assay, planthopper Naam
readout.kind: Ki (nM)
Answer in nM, number only, no unit symbol.

So what's the measured Ki for this one? NC(=O)c1cnccc1C(F)(F)F [TFNA-AM, 4-trifluoromethylnicotinamide]
600

----------
Target chain: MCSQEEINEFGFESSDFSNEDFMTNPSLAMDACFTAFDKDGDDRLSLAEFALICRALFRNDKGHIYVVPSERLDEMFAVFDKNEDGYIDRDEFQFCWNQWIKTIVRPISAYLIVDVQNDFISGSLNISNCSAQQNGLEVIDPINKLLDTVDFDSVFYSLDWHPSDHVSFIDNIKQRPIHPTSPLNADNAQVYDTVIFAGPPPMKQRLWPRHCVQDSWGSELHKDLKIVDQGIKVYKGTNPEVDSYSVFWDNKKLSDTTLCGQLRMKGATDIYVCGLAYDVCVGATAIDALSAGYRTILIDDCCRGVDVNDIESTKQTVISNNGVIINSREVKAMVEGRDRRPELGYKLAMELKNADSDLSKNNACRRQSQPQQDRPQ
readout.kind: Ki (nM)
Numbers only; they are read as nM.

# lookup: Ki of NC(=O)c1cnccc1C(F)(F)F [TFNA-AM, 4-trifluoromethylnicotinamide]
1090

----------
# measured.target: Apis mellifera (honey bee) Naam2 (Apis mellifera, UniProt A0A7M7MP11)
# Sequence (A0A7M7MP11 1-346): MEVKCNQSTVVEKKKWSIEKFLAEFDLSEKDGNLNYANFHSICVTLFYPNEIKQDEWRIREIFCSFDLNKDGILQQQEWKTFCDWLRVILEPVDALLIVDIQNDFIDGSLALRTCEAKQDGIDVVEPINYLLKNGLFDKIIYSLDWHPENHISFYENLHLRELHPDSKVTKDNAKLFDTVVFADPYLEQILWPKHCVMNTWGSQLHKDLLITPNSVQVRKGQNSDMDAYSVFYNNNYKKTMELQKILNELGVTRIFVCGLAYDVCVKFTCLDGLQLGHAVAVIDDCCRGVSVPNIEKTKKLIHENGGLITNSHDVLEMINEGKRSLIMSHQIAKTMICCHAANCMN
readout.kind: pKi
By convention, pKi is the negative base-10 log of a molar concentration.

What is its pKi for Apis mellifera (honey bee) Naam2 (Apis mellifera, UniProt A0A7M7MP11)? Entry: NC(=O)c1cnccc1C(F)(F)F [TFNA-AM, 4-trifluoromethylnicotinamide]
4.78
